# System: Human papillomavirus type 1a E7 protein (residues 1-88)
# ASSAY METHOD TEXT: HPV1a E7 small-molecule binders, primary screen, biochemical, small-molecule microarray, residues 1-88, 635 nm (AID 1129)
# ASSAY CONDITIONS: small-molecule microarray binding, fluorescence 635 nm; higher = more signal
ASSAY METRIC: composite z-score
Answer as a number with no unit attached.

INSERT INTO results (molecule, assay_metric, test_value) VALUES
  ('COCCOC(=O)N1C(=O)[C@@]2(c3cc(C#Cc4ccc(OC)cc4)ccc31)[C@H](C(N)=O)[C@H]1C(=O)O[C@H](c3ccccc3)[C@H](c3ccccc3)N1[C@@H]2c1ccc(O)cc1', 'composite z-score', -0.923),
  ('COc1ccc([Si](C)(C)[C@@H]2[C@@H](CCO)O[C@]3(C(=O)N(Cc4cccc(N5CCCCC5=O)c4)c4ccccc43)[C@H]2C)cc1', 'composite z-score', 1.17),
  ('Cc1ccc(N2C(=O)c3ccccc3[C@@H](C(=O)NCC(C)C)[C@@H]2c2ccc(CO)cc2)nc1', 'composite z-score', -0.871),
  ('CN(C)CCCCNC(=O)[C@@H]1C[C@@H]2C(=O)N[C@@H](CCCCN)C(=O)N2[C@@H]1c1cccc(OCCO)c1', 'composite z-score', -0.229),
  ('O=C1C2C=CC(C(O)C3CC=CCC3)N(n3cnnc3)C2C(=O)N1Cc1ccccc1 (configuration not stated)', 'composite z-score', -0.288);

Incoming: Any idea what composite z-score came out for CC(=O)n1cc(C(O)C2C=CC3C(=O)N(c4ccccc4)C(=O)C3N2Nc2ccc(C#N)cc2)c2ccccc21 (configuration not stated) on Human papillomavirus type 1a E7 protein (residues 1-88)?
Outgoing: 1.26

Incoming: COc1ccc(C(=O)Nc2cccc(CN3C(=O)[C@@]4(O[C@@H](CCn5cc([C@H](O)c6ccccc6)nn5)[C@H]([Si](C)(C)c5ccc(OC)cc5)[C@H]4C)c4ccccc43)c2)cc1 , same question.
Outgoing: 0.138
